B1: Spectrin alpha chain, erythrocytic 1, residues 979 to 1036; numbered along this chain, P02549 (parent)
chain: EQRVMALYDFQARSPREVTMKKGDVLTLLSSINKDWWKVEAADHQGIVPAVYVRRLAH

Variants of: B1
Assay: abundance fitness (aPCA) (normalised: wild type 0, dead -1); higher = more abundant; growth selection in yeast, the domain comes from the species named
Details: Homo sapiens
Note: every record was labeled by where its abundance fitness sits among I = under -0.7, II = from -0.7 up to -0.2, III = -0.2 and over

Ask | Which category fits this record: EQRVMALYDFQARSPREVTMKKGDVLTLLSSINKDRWKVEAADHQGIVPAVYVRRLAH [W36R]
Reply | I

Ask | Which category fits this record: EQRVMALYDFQARSPREVTMKKGDVLTLLSSINKDWWKVEAAGHQGIVPAVYVRRLAH [D43G]
Reply | III
